// provenance: PubChem BioAssay

test: yeast transport mutant growth inhibition pilot in 384-well plates, post-Golgi transport modulator project (AID 636); settings: absorbance 615 nm, about 18 h, active compounds read high
Recorded endpoint: inhibition (%)
Number only, in %; omit the unit.

Worked set:
INSERT INTO results (compound, recorded_endpoint, output_unit, reading) VALUES
  ('O=C(NCc1cccs1)C(Cc1ccccc1)NS(=O)(=O)c1cccs1 (configuration not stated)', 'inhibition', '%', -3.16),
  ('CCOC(=O)c1ccccc1NC(=O)c1ccc2c(=O)n3c(nc2c1)CCCCC3', 'inhibition', '%', -4.53),
  ('CCOC(=O)c1cccc(NC2c3ccccc3C(=O)N2Cc2ccco2)c1 (configuration not stated)', 'inhibition', '%', -3.6);

Inquiry: For the compound Cc1nc2c(-c3ccccc3)c(C)nn2c(C)c1CCC(=O)NCc1ccco1 , what inhibition is on record?
Reply text: -0.9

Inquiry: Now consider CCC(C)OC(=O)C1=C(C)NC2=C(C(=O)C(C(=O)OC)C(C)C2)C1c1ccc(N(C)C)cc1 (configuration not stated) and answer again.
Reply text: -2.11

Inquiry: Now consider O=C(COc1ccc2ccccc2c1)N1CCCC1 and answer again.
Reply text: 0.38

Inquiry: Now consider CCOc1ccc2nc(Nc3nc4c(c(=O)[nH]3)CCC4)nc(C)c2c1 and answer again.
Reply text: -4

* * *

assay: doxorubicin toxicity protection in MRP-1 cells – H69AR cells, CellTiter-Glo, duplicate, MRP-1 activator project, pilot screen (AID 807); settings: H69AR viability with doxorubicin, CellTiter-Glo luminescence; at 10 µM; active compounds read high;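 further: compound pretreatment 18-22 h then 72 h combined with doxorubicin; 0% = doxorubicin alone and 100% = vehicle without doxorubicin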
Recorded endpoint: viability increase (%)
Number only, in %; omit the unit.

INSERT INTO results (compound, reading) VALUES
  ('COC(=O)c1cc(OC)c(OC)cc1NC(=O)c1ccc(Br)o1', -0.2),
  ('O=C1c2ccccc2C(Nc2ccc(F)cc2F)N1CCN1CCOCC1 (centres undefined)', -1.58),
  ('Cc1ccnc(NC(=O)C2CCCN(S(=O)(=O)c3cnc[nH]3)C2)c1 (centres undefined)', -1.81),
  ('COc1ccc(N2CCN(C(=O)C34CCC(C)(C(=O)C3)C4(C)C)CC2)cc1 (centres undefined)', -0.51);

Inquiry: For the compound CC1CCCC(N2CCN(C(=O)c3ccc(F)cc3)CC2)C1 (centres undefined) , what viability increase is on record?
Reply text: -0.74

Inquiry: Now consider Cc1ccccc1-c1nc(CN2CCC(C(=O)N3CCC(C(N)=O)CC3)CC2)c(C)o1 and answer again.
Reply text: -2.4

Inquiry: Now consider Cc1ccc(-n2ncc3c(=O)n(CC(=O)NCc4ccco4)cnc32)cc1C and answer again.
Reply text: -5.18

Inquiry: Now consider Cc1onc(-c2ccccc2Cl)c1C(=O)Nc1ccc(S(=O)(=O)N2CCCC2)cc1 and answer again.
Reply text: -2.15

Inquiry: Now consider CC(=O)Nc1ccc(S(=O)(=O)N2CCN(C(=O)CCC3CCCC3)CC2)cc1 and answer again.
Reply text: -2.79

Inquiry: Now consider Cc1cccc(N2CCN(C(=O)Cn3nc(Cc4ccncc4)c4ccccc4c3=O)CC2)c1C and answer again.
Reply text: 1.06

Inquiry: Now consider O=C(NCCCN1CCOCC1)c1ccc(CS(=O)(=O)c2c(Cl)cccc2Cl)o1 and answer again.
Reply text: -1.26

Inquiry: Now consider O=C(c1cnn(-c2ccccc2)c1-n1cccc1)N1CCN(C2CCCCC2)CC1 and answer again.
Reply text: -3.1

* * *

Quick list: inhibition per entry.
test: yeast transport mutant growth inhibition pilot in 384-well plates, post-Golgi transport modulator project (AID 636); settings: absorbance 615 nm, about 18 h, active compounds read high
Number only, in %; omit the unit.

Worked set:
INSERT INTO assay_data (compound, reading) VALUES
  ('Cc1nc2ccccc2c2oc(C(=O)N3CCN(C(=O)c4ccco4)CC3)cc12', -2.69),
  ('Cc1nc(NCc2ccc3c(c2)OCO3)c2oc3ccccc3c2n1', -0.93);

Inquiry: For the compound CC(c1ccco1)N(C(=O)c1ccc(S(=O)(=O)N2CCCCC2)cc1)c1ccccn1 (centres undefined) , what inhibition is on record?
Reply text: -4.03

Inquiry: Now consider O=c1[nH]c2ccc(Br)cc2c(-c2ccccc2)c1N1CCOCC1 and answer again.
Reply text: 0

Inquiry: Now consider COc1ccc(NC(=O)c2cc(C3CC3)on2)c(OC)c1 and answer again.
Reply text: 0

Inquiry: Now consider COc1ccccc1-c1cc2nc(C)c(CCC(=O)NCc3ccco3)c(C)n2n1 and answer again.
Reply text: -2.69

Inquiry: Now consider CCCCN(C)C(=O)c1ccc(CS(=O)(=O)c2ccccc2C)o1 and answer again.
Reply text: 1.28

Inquiry: Now consider COc1ccc(Nc2ncnc3c2cnn3-c2ccccc2)cc1OC and answer again.
Reply text: 0.27

Inquiry: Now consider O=C1c2ccccc2C(Nc2ccc3c(c2)OCCO3)N1Cc1ccc2c(c1)OCO2 (centres undefined) and answer again.
Reply text: -5.73

* * *

Quick list: viability per entry.
test: viability of PTEN-null HCT116 cells – cell-based, HCT116 clonal line, CellTiter-Glo, pilot screen (AID 824); conditions: HCT116 PTEN-deleted viability, 60 h, at 10 µM, active compounds read low;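 further: 0% = 20 µM Hyamine control and 100% = vehicle cell control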
Results filed as inconclusive are left out.
Number only, in %; omit the unit.

INSERT INTO assay_data (compound, output_unit, reading) VALUES
  ('CCCCc1cc(=O)oc2cc(OCC(=O)N(CC)CC)c(Cl)cc12', '%', 89.6),
  ('COCc1cc(C)nc(Nc2ccc(C)cc2C)c1C#N', '%', 90.6),
  ('CCOC(=O)c1sc2nc(NC(=O)c3cccs3)sc2c1C', '%', 87.4);

Inquiry: For the compound COC(=O)c1ccc(-c2nc(-c3ccc(Br)o3)no2)cc1 , what viability is on record?
Reply text: 87.4

Inquiry: Now consider FC(F)(F)c1cc(-c2ccco2)nc(NCc2ccco2)n1 and answer again.
Reply text: 59.1

Inquiry: Now consider Brc1ccc(-c2noc(CCc3ccccc3)n2)o1 and answer again.
Reply text: 96.9

Inquiry: Now consider Cc1cc(C)nc(SCc2ccc3nonc3c2)n1 and answer again.
Reply text: 98

Inquiry: Now consider CCOC(=O)C(C(=O)Nc1ccccc1)C1CCCCC1 (centres undefined) and answer again.
Reply text: 86.7

Inquiry: Now consider CCOC(=O)CN1C(=O)C(=O)c2cccc(C)c21 and answer again.
Reply text: 92.4

* * *

assay: viability of PTEN-null HCT116 cells – cell-based, HCT116 clonal line, CellTiter-Glo, pilot screen (AID 824); conditions: HCT116 PTEN-deleted viability, 60 h, at 10 µM, active compounds read low;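 further: 0% = 20 µM Hyamine control and 100% = vehicle cell control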
Records with an inconclusive call do not appear.
Categories are defined by ranges of viability, namely class 0 (below 80%), class 1 (80% to below 90%), class 2 (90% or more)

Recorded results for 3 compounds are shown here.
INSERT INTO results (compound, assigned_class) VALUES
  ('CC(C)(C)NC(=O)c1cnn2c1NC(c1ccc(F)cc1)CC2C(F)(F)F (configuration not stated)', 'class 1'),
  ('CCOC(=O)c1[nH]c(C)c(C(=O)Nc2ccc(Cl)cc2)c1C', 'class 2'),
  ('O=NC1=C(c2c(O)[nH]c3ccccc23)CCCC1', 'class 2');

Inquiry: Each compound maps to one class by viability. Which class for O=C(Nc1ccc(N2C(=O)C3C4C=CC(C4)C3C2=O)cc1)Nc1nncs1 (configuration not stated) ?
Reply text: class 2

Inquiry: Now consider CC1CCCN(C(=O)c2cc3c(-c4ccc(Cl)cc4)nn(C)c3s2)C1 (configuration not stated) and answer again.
Reply text: class 2

Inquiry: Now consider CC(C)c1nnc(NC(=O)C2CCCCC2)s1 and answer again.
Reply text: class 2

Inquiry: Now consider Cn1c(=O)oc2cc(S(=O)(=O)NC3CCN(Cc4ccccc4)CC3)ccc21 and answer again.
Reply text: class 2

Inquiry: Now consider COC(=O)c1c(NC(=O)c2nc3ccccc3s2)sc2c1CCN(C(C)=O)C2 and answer again.
Reply text: class 0

Inquiry: Now consider O=C(Nc1nc2ccc(Cl)cc2s1)c1ccc(Br)o1 and answer again.
Reply text: class 1

Inquiry: Now consider Cc1c(C(=O)OCc2ccccc2)[nH]c2c1C(=O)CC(c1ccco1)C2 (configuration not stated) and answer again.
Reply text: class 0

* * *

test: viability of HCT116 without oncogenic beta-catenin – human colon tumor cells, pilot screen (AID 823); conditions: HCT116 beta-catenin knockout viability, CellTiter-Glo, 60 h; at 10 µM; active compounds read low;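 further: 0% = wells killed by 20 µM Hyamine and 100% = untreated DMSO cell wells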
Inconclusive results are not listed. Activity calls are given as the source filed them.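 Rule for the calls: active = cell viability at or below a set limit in both duplicate runs, the limit being the all-compound median minus 4 SD (cut at about 23% in these data, passing the limit was not always enough); inconclusive = no clear call, values can overlap the other calls; inactive = the rest.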
Recorded endpoint: viability

INSERT INTO results (molecule, reading) VALUES
  ('O=C(Nc1ccc(-c2nc3cccnc3s2)cc1)c1ccco1', '90% (inactive)'),
  ('COc1ccccc1N1CCN(C(CNC(=O)C2CCCCC2)c2cccnc2)CC1 (configuration not stated)', '90.1% (inactive)'),
  ('Cc1ccc(/C=N/n2c(C)nnc2C)cc1', '87.4% (inactive)');

Inquiry: For the molecule COc1ccc(NC(=O)C(c2ccc(C)cc2)N(C)C(=O)c2cnccn2)cc1 (configuration not stated) , what viability is on record?
Reply text: 89.6% (inactive)

Inquiry: Now consider CNC(=O)c1ccccc1NC(=O)c1c(O)c2c([nH]c1=O)CCCC2 and answer again.
Reply text: 88.9% (inactive)

Inquiry: Now consider O=C1CCCC(O)=C1C1C2=C(CCCC2=O)Oc2ccccc21 (configuration not stated) and answer again.
Reply text: 91.6% (inactive)

Inquiry: Now consider CCOC(=O)Cc1cnc(NC(=O)c2ccccc2)s1 and answer again.
Reply text: 92.3% (inactive)
